Reported self-cleavage by item:
B1: LINE1-full (parent)
chain: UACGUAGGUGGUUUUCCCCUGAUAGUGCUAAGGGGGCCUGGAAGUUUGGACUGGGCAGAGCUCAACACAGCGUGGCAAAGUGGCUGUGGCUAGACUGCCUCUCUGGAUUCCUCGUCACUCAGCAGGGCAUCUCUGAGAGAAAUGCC

- Variants of: B1
- METHOD NOTES: self-cleavage, relative activity (ratio to wild type); higher = more cleavage; in vitro, sequencing; the parent is a self-cleaving ribozyme
Write the number on its own, no unit after it.

// solved cases for self-cleavage follow
>>> print(df.to_string())
   sequence_change  parameter_measured   val
0        U13C U46C       self-cleavage  1.17
1       A92U A107C       self-cleavage   0.9
2        U46C C95U       self-cleavage  0.23

Report self-cleavage for A2G A64G please.
0.39

Item: G7A A79G
0.61

Item: A78C U96C
0.29
